Target: EHMT1 (Homo sapiens)
Sequence (Q9H9B1 whole entry): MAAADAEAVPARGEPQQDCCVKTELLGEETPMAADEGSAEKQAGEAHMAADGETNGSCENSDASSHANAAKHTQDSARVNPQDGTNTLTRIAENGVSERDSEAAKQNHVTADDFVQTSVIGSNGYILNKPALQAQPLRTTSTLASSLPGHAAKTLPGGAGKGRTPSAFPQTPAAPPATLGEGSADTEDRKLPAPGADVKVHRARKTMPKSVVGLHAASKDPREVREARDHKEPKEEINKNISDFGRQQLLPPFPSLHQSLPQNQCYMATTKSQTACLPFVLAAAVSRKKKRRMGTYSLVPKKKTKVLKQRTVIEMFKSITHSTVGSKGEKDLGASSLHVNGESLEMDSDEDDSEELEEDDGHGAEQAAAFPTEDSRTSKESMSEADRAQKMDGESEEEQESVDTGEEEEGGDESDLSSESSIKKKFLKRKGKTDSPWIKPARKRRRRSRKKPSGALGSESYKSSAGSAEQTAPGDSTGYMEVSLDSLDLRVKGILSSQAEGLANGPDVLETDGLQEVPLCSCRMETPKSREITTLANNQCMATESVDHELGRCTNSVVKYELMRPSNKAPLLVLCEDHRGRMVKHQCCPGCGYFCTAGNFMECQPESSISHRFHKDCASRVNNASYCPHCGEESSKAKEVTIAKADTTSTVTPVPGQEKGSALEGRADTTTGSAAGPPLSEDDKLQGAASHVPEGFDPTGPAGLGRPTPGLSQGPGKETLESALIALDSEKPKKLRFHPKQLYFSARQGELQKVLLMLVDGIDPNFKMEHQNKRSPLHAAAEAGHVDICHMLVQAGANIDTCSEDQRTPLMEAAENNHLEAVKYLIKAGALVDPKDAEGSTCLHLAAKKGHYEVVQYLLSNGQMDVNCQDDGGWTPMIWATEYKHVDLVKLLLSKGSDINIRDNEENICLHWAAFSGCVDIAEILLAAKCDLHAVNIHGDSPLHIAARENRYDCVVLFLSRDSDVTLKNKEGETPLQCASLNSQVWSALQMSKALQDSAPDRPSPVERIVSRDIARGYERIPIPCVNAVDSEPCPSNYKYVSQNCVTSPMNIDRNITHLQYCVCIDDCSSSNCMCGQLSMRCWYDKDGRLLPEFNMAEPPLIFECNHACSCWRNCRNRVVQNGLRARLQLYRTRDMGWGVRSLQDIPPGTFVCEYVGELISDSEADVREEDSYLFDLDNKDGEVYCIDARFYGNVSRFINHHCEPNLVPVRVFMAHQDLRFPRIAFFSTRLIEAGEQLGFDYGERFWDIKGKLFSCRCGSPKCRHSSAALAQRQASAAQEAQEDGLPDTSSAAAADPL
Assay: EHMT1 PEP enzyme assay
Assay type: biochemical
Conditions: Table 3A; read-out: EHMT1 (IC50 μM)
READOUT_NAME: IC50

{"columns": ["MOLECULE", "READOUT_VALUE"],
 "data": [
  ["CNCc1cc(-c2c(OC)ccc(Nc3nc(C)cc(NC)n3)c2F)no1", "< 0.01 µM"],
  ["CNC1=Nc2cc(-n3cc(CN4CCC4)cn3)c(Cl)cc2C12CCC2", "0.01 to 0.1 µM"],
  ["CNc1cc(C)nc(Nc2ccc(OC)c(-n3cc(C4CCCN4)nn3)c2F)n1 (centres unmarked)", "< 0.01 µM"],
  ["CNCc1cn(-c2cc3c(cc2Cl)C2(CCC2)C(N)=N3)nn1", "0.01 to 0.1 µM"],
  ["CNCc1cn(-c2c(OC)cc3c(c2F)N=C(N)C32CCC2)nn1", "0.01 to 0.1 µM"]
]}

====

Molecular target: human EHMT2 913-1193 (Homo sapiens, UniProt Q96KQ7)
Construct: recombinant purified human EHMT2 913-1193, Viva; purchased Viva
Sequence (Q96KQ7 913-1193): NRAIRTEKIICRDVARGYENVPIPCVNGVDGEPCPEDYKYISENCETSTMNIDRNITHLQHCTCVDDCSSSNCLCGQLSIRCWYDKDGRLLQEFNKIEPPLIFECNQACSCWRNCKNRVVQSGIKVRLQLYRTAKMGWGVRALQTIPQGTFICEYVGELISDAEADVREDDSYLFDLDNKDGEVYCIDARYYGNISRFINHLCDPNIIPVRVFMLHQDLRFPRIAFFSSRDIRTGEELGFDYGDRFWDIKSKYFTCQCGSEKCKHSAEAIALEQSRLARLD
Assay: EHMT2 enzyme assay on histone peptide substrate
Type: biochemical
Settings: Table 3A; histone H3 1-15 peptide, balanced conditions; read-out: EHMT2 (IC50 μM)
# key: entry, value: IC50

{"columns": ["COMPOUND", "IC50"],
 "data": [
  ["CNC1=Nc2cc(-n3cc4c(n3)CCCNC4)c(Cl)cc2C12CCC2 [Compound A51]", "< 0.01 µM"],
  ["CNCc1cnn(-c2c(OC)ccc(Nc3nc(NC)cc(C(C)C)n3)c2F)c1 [Compound A8]", "0.01 to 0.1 µM"],
  ["CNC1=Nc2cc(-c3cc4ccncc4[nH]3)c(Cl)cc2C12CCC2 [Compound A44]", "0.01 to 0.1 µM"],
  ["CNc1cc(C)nc(Nc2ccc(OC)c(-n3ncc4c3CCCNC4=O)c2F)n1 [Compound A63]", "> 1 µM"],
  ["CNc1cc(C)nc(Nc2ccc(OC)c(-n3ncc4c3CCCNC4)c2F)n1 [Compound A62]", "< 0.01 µM"],
  ["CNC1=Nc2cc(-n3cc([C@H]4CCCN4C)nn3)c(OC)cc2C12CCC2 [Compound A59R]", "< 0.01 µM"],
  ["CNCc1cn(-c2cc3c(cc2Cl)C2(CCC2)C(NC)=N3)nn1 [Compound A11]", "0.01 to 0.1 µM"],
  ["CNC1=Nc2cc(-c3cc4n(n3)CCNC4)c(Cl)cc2C12CCC2 [Compound A10]", "0.1 to 1 µM"],
  ["CNC1=Nc2cc(-c3[nH]c4cnccc4c3C)c(Cl)cc2C12CCC2 [Compound A45]", "< 0.01 µM"]
]}

====

Target: human EHMT2 913-1193 (Homo sapiens)
Construct: recombinant purified human EHMT2 913-1193, Viva; purchased Viva
Assay: EHMT2 enzyme assay on histone peptide substrate
Type: biochemical
Details: Table 3; histone H3 1-15 peptide, balanced conditions; read-out: EHMT2 PEP (IC50 μM)

{"columns": ["SAMPLE_SMILES", "TARGET_ENTITY", "IC50"],
 "data": [
  ["CNc1cc(C)nc(Nc2ccc(C)c(C(=O)Nc3cc(C#N)ccn3)c2)n1", "human EHMT2 913-1193 (Homo sapiens)", "> 10 µM"],
  ["CNc1cc(C)nc(Nc2ccc(C)c(C(=O)Nc3cn(C4CC4)cn3)c2)n1", "human EHMT2 913-1193 (Homo sapiens)", "> 10 µM"],
  ["CNc1cc(C)nc(Nc2ccc(OC)c(C#CCN3CCNCC3)c2)n1", "human EHMT2 913-1193 (Homo sapiens)", "0.1 to 1 µM"],
  ["CNc1cc(C)nc(Nc2ccc(Cl)c(C(=O)Nc3cccnn3)c2)n1", "human EHMT2 913-1193 (Homo sapiens)", "> 10 µM"],
  ["CNc1cc(C)nc(Nc2ccc(Cl)c(C(=O)Nc3ccccc3)c2)n1", "human EHMT2 913-1193 (Homo sapiens)", "> 10 µM"],
  ["CNc1cc(C)nc(Nc2ccc(OC)c(CN[C@@H](C)CN3CCCC3)c2)n1", "human EHMT2 913-1193 (Homo sapiens)", "0.1 to 1 µM"],
  ["CNc1cc(C)nc(Nc2ccc(OC)c(OC[C@H](O)CN3CC4(CC4)C3)c2)n1", "human EHMT2 913-1193 (Homo sapiens)", "> 10 µM"],
  ["CNc1cc(C)nc(Nc2ccc(Br)c(CNCCN3CCCC3)c2)n1", "human EHMT2 913-1193 (Homo sapiens)", "0.1 to 1 µM"]
]}

Hey, just so you know, these numbers are from patent US20200317642A1.
